Each recorded value in this set is attributed to paper PMC10777851.

# Tested on: HEK293
# procedure_details: Cytotoxicity (CellTiter-Glo), HEK293
# Format: cell-based
# condition: HEK293, 24 h
measurement_type: IC50

query: Give its IC50 value. Item: Cc1cnccc1-c1[nH]c(N)nc1-c1ccc2c(c1)N(C(=O)C(C)(C)N)CCO2
result: > 200 µM
